Recorded koff, one value per entry.
measurement target: recombinant rat VEGF164 (rat) (UniProt P16612)
experimental protocol: Biacore SPR, VEGF immobilized, pH 5
endpoint label: koff

INSERT INTO results (binder, recorded_measurement) VALUES
  ('578min_max T84N_V89L_DHP (scFv) scFv: EIVMTQSPSTLSASVGDRVIITCQASEIIHSWLAWYQQKPGKAPKLLIYLASTLASGVPSRFSGSGSGAEFTLTISSLQPDDFATYYCQNVYLASTNGANFGQGTKLTVLGGGGGSGGGGSGGGGSGGGGSEVQLVESGGGSVQPGGSLRLSCTASGFSLTDYYYMTWVRQAPGKGLEWVGFIDPDDDPYYATWAKGRFTISRDNSKNTLYLQMNSLRAEDTATYYCAGGDHNSGWGLDIWGQGTTVTVSS', '0.0019 s⁻¹'),
  ('567-min (scFv, also called Protein Nr; 884) scFv: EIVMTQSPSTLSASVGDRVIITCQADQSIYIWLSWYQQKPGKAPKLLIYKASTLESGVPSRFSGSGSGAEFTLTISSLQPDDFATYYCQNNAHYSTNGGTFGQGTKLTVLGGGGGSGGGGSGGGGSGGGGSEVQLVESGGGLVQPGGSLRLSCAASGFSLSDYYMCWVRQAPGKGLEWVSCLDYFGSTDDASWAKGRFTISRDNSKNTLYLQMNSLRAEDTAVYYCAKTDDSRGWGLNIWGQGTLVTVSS', '0.00048 s⁻¹'),
  ('578-max (scFv, also called EP578max; #821) scFv: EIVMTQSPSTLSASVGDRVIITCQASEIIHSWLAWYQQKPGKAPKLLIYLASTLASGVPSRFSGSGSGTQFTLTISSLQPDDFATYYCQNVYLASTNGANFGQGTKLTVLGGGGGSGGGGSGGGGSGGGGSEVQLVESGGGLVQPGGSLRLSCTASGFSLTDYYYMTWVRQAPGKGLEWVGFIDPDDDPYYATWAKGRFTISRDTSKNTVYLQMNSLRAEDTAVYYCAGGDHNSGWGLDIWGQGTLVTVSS', '0.000528 s⁻¹'),
  ('509-maxII (scFv, VH tied by name; also called Protein Nr) scFv: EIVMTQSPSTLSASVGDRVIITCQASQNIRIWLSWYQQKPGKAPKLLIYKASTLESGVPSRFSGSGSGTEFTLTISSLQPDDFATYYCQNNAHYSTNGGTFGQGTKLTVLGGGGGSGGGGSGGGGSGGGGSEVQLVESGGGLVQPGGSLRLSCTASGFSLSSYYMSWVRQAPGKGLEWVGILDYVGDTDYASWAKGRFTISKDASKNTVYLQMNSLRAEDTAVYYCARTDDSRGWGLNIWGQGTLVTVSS', '0.0266 s⁻¹'),
  ('578minmax FW1.4_DHP (scFv, tied by name only) scFv: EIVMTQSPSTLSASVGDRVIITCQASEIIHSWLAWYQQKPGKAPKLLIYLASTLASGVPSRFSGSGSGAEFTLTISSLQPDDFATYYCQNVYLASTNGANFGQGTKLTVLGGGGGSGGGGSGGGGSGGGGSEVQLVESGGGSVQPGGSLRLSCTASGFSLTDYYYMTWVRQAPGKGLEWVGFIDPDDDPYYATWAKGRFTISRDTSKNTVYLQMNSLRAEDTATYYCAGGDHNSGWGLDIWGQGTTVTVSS', '0.000676 s⁻¹'),
  ('509-max (scFv, VL and VH tied by name; also called Protein Nr; 855) scFv: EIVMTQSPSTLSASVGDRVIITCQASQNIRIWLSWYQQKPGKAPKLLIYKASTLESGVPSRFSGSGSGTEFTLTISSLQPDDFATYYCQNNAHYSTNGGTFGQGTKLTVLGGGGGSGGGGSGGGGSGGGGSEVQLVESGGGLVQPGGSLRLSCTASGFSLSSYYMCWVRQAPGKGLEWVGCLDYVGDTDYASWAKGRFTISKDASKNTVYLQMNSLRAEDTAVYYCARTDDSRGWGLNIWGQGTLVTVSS', '0.00645 s⁻¹');
